Reference for the values: ChEMBL document CHEMBL1961873

Biological target: Tyrosine-protein kinase ABL2 (Homo sapiens) (UniProt P42684)
Sequence (P42684 whole entry): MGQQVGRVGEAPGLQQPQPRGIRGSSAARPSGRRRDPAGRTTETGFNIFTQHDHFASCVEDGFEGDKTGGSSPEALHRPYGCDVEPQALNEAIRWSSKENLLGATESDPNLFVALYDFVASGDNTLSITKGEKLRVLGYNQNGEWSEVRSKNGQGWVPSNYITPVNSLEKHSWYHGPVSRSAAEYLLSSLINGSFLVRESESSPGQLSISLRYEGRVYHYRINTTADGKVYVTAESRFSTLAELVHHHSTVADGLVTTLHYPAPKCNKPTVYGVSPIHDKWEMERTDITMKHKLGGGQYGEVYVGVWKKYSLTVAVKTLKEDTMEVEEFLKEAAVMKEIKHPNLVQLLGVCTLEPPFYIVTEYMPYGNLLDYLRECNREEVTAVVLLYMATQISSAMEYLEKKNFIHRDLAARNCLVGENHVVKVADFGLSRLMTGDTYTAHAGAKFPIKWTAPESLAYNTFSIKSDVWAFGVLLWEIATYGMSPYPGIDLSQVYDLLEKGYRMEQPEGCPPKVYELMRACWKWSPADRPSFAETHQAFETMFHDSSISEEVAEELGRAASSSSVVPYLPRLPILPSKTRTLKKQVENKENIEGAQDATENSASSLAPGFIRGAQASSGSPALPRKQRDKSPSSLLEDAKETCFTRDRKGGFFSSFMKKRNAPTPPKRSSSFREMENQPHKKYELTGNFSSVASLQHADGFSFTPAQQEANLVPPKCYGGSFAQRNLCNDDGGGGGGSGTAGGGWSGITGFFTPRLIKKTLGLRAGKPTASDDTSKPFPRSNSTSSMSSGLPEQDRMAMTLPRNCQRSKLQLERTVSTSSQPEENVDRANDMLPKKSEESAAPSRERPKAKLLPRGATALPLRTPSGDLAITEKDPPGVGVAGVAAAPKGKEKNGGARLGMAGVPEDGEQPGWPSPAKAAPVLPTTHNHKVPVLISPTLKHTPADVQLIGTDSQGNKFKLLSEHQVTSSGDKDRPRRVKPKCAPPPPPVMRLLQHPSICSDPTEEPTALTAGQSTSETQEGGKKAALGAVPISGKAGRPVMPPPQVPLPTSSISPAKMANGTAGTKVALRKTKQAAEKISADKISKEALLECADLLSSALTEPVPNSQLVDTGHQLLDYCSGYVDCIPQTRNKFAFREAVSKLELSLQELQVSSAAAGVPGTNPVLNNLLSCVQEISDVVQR
Details: at 1 µM
Description: GSK_PKIS: ARG mean inhibition at 1 uM [Nanosyn]
Entries and their inhibition values follow.
Just the number in %, nothing appended.

-- ask Fill in reported inhibition for this entry: c1ccc(-c2nc3n(c2-c2ccc4c(c2)OCO4)CCC3)nc1
-- reply 4.67

-- ask Fill in reported inhibition for this entry: CCCN1CCC(c2ccc(Nc3nc(Nc4cc(F)ccc4C(N)=O)c4cc[nH]c4n3)c(OC)c2)CC1
-- reply 5.54

-- ask Fill in reported inhibition for this entry: CCOc1ccc2c(-c3ccnc(Nc4cccc(C(F)(F)F)c4)n3)cnn2n1
-- reply 8.28

* * *

Entries and their inhibition values follow.
Target: Fibroblast growth factor receptor 3 (Homo sapiens) (UniProt P22607);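 also: values reported are mean percent inhibition of FGFR3 activity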
Sequence (P22607 23-806 limits assumed): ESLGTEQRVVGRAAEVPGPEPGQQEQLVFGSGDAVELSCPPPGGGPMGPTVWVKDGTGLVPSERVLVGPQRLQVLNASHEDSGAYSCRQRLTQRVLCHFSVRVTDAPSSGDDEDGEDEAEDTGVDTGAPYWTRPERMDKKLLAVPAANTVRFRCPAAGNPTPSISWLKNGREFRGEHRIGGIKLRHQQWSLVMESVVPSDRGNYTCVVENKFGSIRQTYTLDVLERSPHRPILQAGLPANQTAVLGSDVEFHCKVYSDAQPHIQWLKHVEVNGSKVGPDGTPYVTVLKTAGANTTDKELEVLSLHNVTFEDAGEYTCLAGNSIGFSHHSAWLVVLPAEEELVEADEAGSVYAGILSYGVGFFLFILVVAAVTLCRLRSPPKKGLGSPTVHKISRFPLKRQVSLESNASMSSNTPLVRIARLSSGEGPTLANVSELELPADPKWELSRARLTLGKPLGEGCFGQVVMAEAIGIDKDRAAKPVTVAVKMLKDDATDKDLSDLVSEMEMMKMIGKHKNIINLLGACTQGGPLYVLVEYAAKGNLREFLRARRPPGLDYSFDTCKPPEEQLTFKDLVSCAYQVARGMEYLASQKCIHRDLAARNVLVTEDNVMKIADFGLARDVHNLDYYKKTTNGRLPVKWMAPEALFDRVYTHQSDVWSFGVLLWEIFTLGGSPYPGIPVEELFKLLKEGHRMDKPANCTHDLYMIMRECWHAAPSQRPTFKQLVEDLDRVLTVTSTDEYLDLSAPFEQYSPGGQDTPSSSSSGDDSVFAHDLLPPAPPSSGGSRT
Conditions: at 1 µM
Just the number in %, nothing appended.

Recorded results for 8 compounds are shown here.
>  <COMPOUND>
Fc1ccc(-c2nn3ncccc3c2-c2ccnc(Nc3ccc4c(c3)OCCO4)n2)cc1

>  <READOUT VALUE>
13.5

$$$$
>  <COMPOUND>
CCn1c(-c2nonc2N)nc2ccccc21

>  <READOUT VALUE>
2.35

$$$$
>  <COMPOUND>
c1cc(-c2cnn3nc(N4CCOCC4)ccc23)nc(NC2CC2)n1

>  <READOUT VALUE>
10.9

$$$$
>  <COMPOUND>
Cc1cccc2c1NC(=O)/C2=N\Nc1ccc(S(N)(=O)=O)cc1

>  <READOUT VALUE>
3.33

$$$$
>  <COMPOUND>
Fc1ccc(-c2nn3ccccc3c2-c2ccncc2)cc1

>  <READOUT VALUE>
2.66

$$$$
>  <COMPOUND>
COc1cccc(-n2ncc3c(N/N=C/c4ccc(F)cc4)ncnc32)c1

>  <READOUT VALUE>
6.78

$$$$
>  <COMPOUND>
COc1cc2c(cc1Nc1nc(Nc3ccsc3C(N)=O)c3cc[nH]c3n1)N(C(=O)CN(C)C)CCC2(C)C

>  <READOUT VALUE>
7.81

$$$$
>  <COMPOUND>
CS(=O)(=O)CCNCc1coc(-c2ccc3ncnc(Nc4ccc(OCc5ccccc5)cc4)c3c2)c1

>  <READOUT VALUE>
3.99

$$$$

-- ask Fill in reported inhibition for this entry: COc1ccc(-c2oc3ncnc(N)c3c2-c2ccc(NC(=O)Nc3cc(C(F)(F)F)ccc3F)cc2)cc1
-- reply 63.8

-- ask Fill in reported inhibition for this entry: CN1CCC(n2cnc(-c3ccc(F)cc3)c2-c2ccnc(Nc3ccccc3)n2)CC1
-- reply 0.24

-- ask Fill in reported inhibition for this entry: Cc1ccc2c(-c3ccnc(Nc4ccccc4)n3)c(-c3ccc(F)cc3)nn2n1
-- reply 8.54

-- ask Fill in reported inhibition for this entry: CNC(=O)c1cncc(/C=C/c2ccccc2Cl)c1
-- reply 1.98

-- ask Fill in reported inhibition for this entry: CCOc1ccc2c(-c3ccnc(Nc4cccc(C(F)(F)F)c4)n3)cnn2n1
-- reply 5.74

* * *

Entries and their inhibition values follow.
Target: Serine/threonine-protein kinase 4 (Homo sapiens)
Settings: at 1 µM
Just the number in %, nothing appended.

>  <QUERY SMILES>
O=C(O[C@H]1CN[C@H](C#Cc2cc3ncnc(Nc4ccc(Cc5ccccc5)cc4)c3s2)C1)N1CCOCC1

>  <TARGET OR TEST SYSTEM>
Serine/threonine-protein kinase 4 (Homo sapiens);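 also: mean inhibition of MST1, part of the GSK PKIS dataset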

>  <METRIC>
inhibition

>  <UNIT SYMBOL>
%

>  <READOUT VALUE>
3.13

$$$$

-- ask Fill in reported inhibition for this entry: CS(=O)(=O)CCNCc1ccc(-c2ccc3ncnc(Nc4ccc(OCc5ccccc5)c(C(F)(F)F)c4)c3c2)o1
-- reply 3.71

-- ask Fill in reported inhibition for this entry: COc1cc2ncn(-c3cc(OCc4ccccc4C(F)(F)F)c(C(=O)N(C)C)s3)c2cc1OC
-- reply 3.43

-- ask Fill in reported inhibition for this entry: COc1cccc(-n2ncc3c(N/N=C/c4ccc(F)cc4)ncnc32)c1
-- reply 9.41

* * *

Entries and their inhibition values follow.
Molecular target: SRSF protein kinase 3 (Homo sapiens);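 also: values are mean inhibition of MSSK1 (alias of SRPK3)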
Conditions: at 1 µM
Just the number in %, nothing appended.

>  <QUERY SMILES>
CCN1CCC(CC(=O)Nc2n[nH]c3nnc(-c4cccc(F)c4F)cc23)CC1

>  <UNIT SYMBOL>
%

>  <inhibition>
0.53

$$$$

-- ask Fill in reported inhibition for this entry: COc1ccc(CNC(=O)c2ccc(-c3cc(-c4nnc(C)o4)ccc3C)cc2)cc1
-- reply 6.02

-- ask Fill in reported inhibition for this entry: NS(=O)(=O)c1ccc(Nc2ncc(-c3ccccc3)o2)cc1
-- reply 1.63

* * *

Molecular target: Serine/threonine-protein kinase Nek2 (Homo sapiens) (UniProt P51955);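 also: reported values are mean percent inhibition of NEK2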
Sequence (P51955 whole entry): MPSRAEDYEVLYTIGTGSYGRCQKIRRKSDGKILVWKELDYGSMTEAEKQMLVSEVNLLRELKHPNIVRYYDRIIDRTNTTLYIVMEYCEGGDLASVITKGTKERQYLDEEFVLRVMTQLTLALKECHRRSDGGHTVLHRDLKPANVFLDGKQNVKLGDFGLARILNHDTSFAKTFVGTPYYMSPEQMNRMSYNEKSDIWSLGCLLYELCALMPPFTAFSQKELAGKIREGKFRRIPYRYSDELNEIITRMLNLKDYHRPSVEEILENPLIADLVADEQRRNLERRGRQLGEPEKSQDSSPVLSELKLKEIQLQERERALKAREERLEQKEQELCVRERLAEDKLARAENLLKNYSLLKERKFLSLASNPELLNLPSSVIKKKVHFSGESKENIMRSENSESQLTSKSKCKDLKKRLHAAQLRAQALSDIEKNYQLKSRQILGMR
Conditions: at 1 µM
Answer Not met if inhibition is under 3%, and Met if it is 3% or more.

>  <QUERY SMILES>
CC(=O)Nc1cccc(C#Cc2cncnc2Nc2ccc(OCc3cccc(F)c3)c(Cl)c2)c1

>  <CATEGORY>
Not met

$$$$
>  <QUERY SMILES>
NC(=O)c1sc(-n2cnc3ccc(C(F)(F)F)cc32)cc1OCc1ccccc1Br

>  <CATEGORY>
Met

$$$$
>  <QUERY SMILES>
COc1cc2ncn(-c3cc(OCc4ccccc4C(F)(F)F)c(C(=O)N(C)C)s3)c2cc1OC

>  <CATEGORY>
Not met

$$$$

-- ask Given the entry Clc1ccc(-c2nn3ncccc3c2-c2ccnc(Nc3ccccc3)n2)cc1 , answer whether its inhibition meets or surpasses 3%.
-- reply Not met

-- ask Given the entry CN1CCC(n2cnc(-c3ccc(F)cc3)c2-c2ccnc(Nc3ccccc3)n2)CC1 , answer whether its inhibition meets or surpasses 3%.
-- reply Met

-- ask Given the entry COc1cc(/C=N/Nc2ncnc3[nH]ncc23)ccc1O , answer whether its inhibition meets or surpasses 3%.
-- reply Met

-- ask Given the entry Fc1ccc(-c2nn3ccccc3c2-c2ccncc2)cc1 , answer whether its inhibition meets or surpasses 3%.
-- reply Not met

-- ask Given the entry CS(=O)(=O)CCNCc1ccc(-c2ccc3ncnc(Nc4ccc(OCc5ccccc5)c(C(F)(F)F)c4)c3c2)o1 , answer whether its inhibition meets or surpasses 3%.
-- reply Met

-- ask Given the entry CCCN(CCS(C)(=O)=O)Cc1ccc(-c2ccc3ncnc(Nc4ccc(OCc5cccc(F)c5)c(Cl)c4)c3c2)o1 , answer whether its inhibition meets or surpasses 3%.
-- reply Met

-- ask Given the entry COc1ccc(-c2oc3ncnc(N)c3c2-c2ccc(NC(=O)Nc3cc(C(F)(F)F)ccc3F)cc2)cc1 , answer whether its inhibition meets or surpasses 3%.
-- reply Met

-- ask Given the entry CCn1c(-c2nonc2N)nc2ccccc21 , answer whether its inhibition meets or surpasses 3%.
-- reply Met

-- ask Given the entry COc1cccc(-c2c[nH]c3c(N/N=C/c4ccncc4)ncnc23)c1 , answer whether its inhibition meets or surpasses 3%.
-- reply Not met

-- ask Given the entry CCN1CCC(CC(=O)Nc2n[nH]c3nnc(-c4cccc(F)c4F)cc23)CC1 , answer whether its inhibition meets or surpasses 3%.
-- reply Not met

-- ask Given the entry COc1ccc(-c2cc(-c3c[nH]nc3-c3ccccn3)ccn2)cc1 , answer whether its inhibition meets or surpasses 3%.
-- reply Met

-- ask Given the entry Nc1ncc(-c2cccc(S(N)(=O)=O)c2)c2scc(-c3ccc(F)c(Cl)c3)c12 , answer whether its inhibition meets or surpasses 3%.
-- reply Met

* * *

Molecular target: Maternal embryonic leucine zipper kinase (Homo sapiens) (UniProt Q14680);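 also: each value is the mean inhibition of MELK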
Sequence (Q14680 whole entry, looked up): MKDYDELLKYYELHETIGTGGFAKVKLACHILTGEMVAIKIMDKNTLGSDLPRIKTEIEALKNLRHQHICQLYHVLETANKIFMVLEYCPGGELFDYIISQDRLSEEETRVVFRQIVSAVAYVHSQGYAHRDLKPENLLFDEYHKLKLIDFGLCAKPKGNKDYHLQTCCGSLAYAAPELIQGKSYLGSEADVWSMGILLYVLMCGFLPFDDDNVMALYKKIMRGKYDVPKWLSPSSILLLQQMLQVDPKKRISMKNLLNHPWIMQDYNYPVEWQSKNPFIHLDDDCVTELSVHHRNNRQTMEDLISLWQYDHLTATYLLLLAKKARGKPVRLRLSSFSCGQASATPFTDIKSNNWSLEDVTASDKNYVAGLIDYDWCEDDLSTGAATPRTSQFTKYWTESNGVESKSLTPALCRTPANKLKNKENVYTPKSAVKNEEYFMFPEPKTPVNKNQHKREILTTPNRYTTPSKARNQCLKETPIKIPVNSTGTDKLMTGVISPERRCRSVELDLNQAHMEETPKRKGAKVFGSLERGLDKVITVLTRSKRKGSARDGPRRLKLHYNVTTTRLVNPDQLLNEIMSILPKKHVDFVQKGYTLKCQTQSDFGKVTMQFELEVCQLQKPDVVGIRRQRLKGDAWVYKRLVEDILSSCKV
Settings: at 1 µM
Answer No if inhibition is under 2%, and Yes if it is 2% or more.

The examples below pair each entry with its known result.
>  <QUERY SMILES>
CCn1c(-c2nonc2N)nc2c(C#CC(C)(C)O)ncc(OC3CCNCC3)c21

>  <CATEGORY>
Yes

$$$$
>  <QUERY SMILES>
N#Cc1c(NC(=O)CN2CCOCC2)sc2c1CCCC2

>  <CATEGORY>
No

$$$$

-- ask Given the entry Nc1ncc(-c2cccc(S(N)(=O)=O)c2)c2scc(-c3ccc(F)c(Cl)c3)c12 , answer whether its inhibition meets or surpasses 2%.
-- reply Yes

-- ask Given the entry CC(C)(CO)CNC(=O)c1ccc2c(c1)/C(=N/Nc1ccc(S(N)(=O)=O)cc1)C(=O)N2 , answer whether its inhibition meets or surpasses 2%.
-- reply Yes

* * *

Entries and their inhibition values follow.
Biological target: Testis-specific serine/threonine-protein kinase 1 (Homo sapiens)
Sequence (whole entry): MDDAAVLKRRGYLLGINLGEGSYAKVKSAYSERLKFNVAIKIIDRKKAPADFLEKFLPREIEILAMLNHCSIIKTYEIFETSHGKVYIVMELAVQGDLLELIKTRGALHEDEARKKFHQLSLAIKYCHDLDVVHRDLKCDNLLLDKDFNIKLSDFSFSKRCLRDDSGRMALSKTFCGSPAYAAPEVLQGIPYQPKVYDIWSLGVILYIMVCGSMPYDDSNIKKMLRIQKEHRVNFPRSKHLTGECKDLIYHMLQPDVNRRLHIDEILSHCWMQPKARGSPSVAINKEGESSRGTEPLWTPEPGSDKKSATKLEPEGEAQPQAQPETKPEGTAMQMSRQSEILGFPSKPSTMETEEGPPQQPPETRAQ
Conditions: at 0.1 µM
Just the number in %, nothing appended.

>  <QUERY SMILES>
CCCN1CCC(c2ccc(Nc3nc(Nc4cc(F)ccc4C(N)=O)c4cc[nH]c4n3)c(OC)c2)CC1

>  <TARGET OR TEST SYSTEM>
Testis-specific serine/threonine-protein kinase 1 (Homo sapiens);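 also: mean percent inhibition of TSSK1, from the GSK PKIS screening dataset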

>  <UNIT SYMBOL>
%

>  <READOUT VALUE>
82.4

$$$$

-- ask Fill in reported inhibition for this entry: NS(=O)(=O)c1ccc(Nc2ncc(-c3ccccc3)o2)cc1
-- reply 1.35

-- ask Fill in reported inhibition for this entry: CS(=O)(=O)CCNCc1ccc(-c2ccc3ncnc(Nc4ccc(OCc5ccccc5)c(C(F)(F)F)c4)c3c2)o1
-- reply 3.83

-- ask Fill in reported inhibition for this entry: COc1ccc(CNC(=O)c2ccc(-c3cc(-c4nnc(C)o4)ccc3C)cc2)cc1
-- reply 3.31
